binders and their reported Kd
SYSTEM_TESTED: T1, factor H binding protein (fHbp) variant 1.1, recombinant (Neisseria meningitidis MC58, fHbp v1.1)
T1 construct: also called fHbp v1.1; fHbp v1; source: E. coli BL21(DE3), purified (Ni-NTA, SEC when necessary); not shown: His6, C-terminal, kept
T1 chain: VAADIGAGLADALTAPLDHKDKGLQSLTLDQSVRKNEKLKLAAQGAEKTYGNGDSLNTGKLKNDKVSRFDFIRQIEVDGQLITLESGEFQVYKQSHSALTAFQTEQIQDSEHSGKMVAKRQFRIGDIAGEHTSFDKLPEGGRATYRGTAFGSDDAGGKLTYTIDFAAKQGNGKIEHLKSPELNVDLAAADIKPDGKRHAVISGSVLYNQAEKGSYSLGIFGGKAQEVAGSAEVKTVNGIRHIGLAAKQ
ASSAY_NAME: SPR
CONDITION_LABEL: both partners purified
API: value field is a number in nM; no unit string.

# annotated cases, reported Kd shown
- BINDER: "human anti-fHbp mAb 3B7 (antibody, V domains shown, source: Expi293, transient transfection, purified (protein G Sepharose)) VH: EVQLVQSGAEVKKPGSSVKVSCKASGDTFSNYPISWVRQAPGQGLEWMGGIIPIFGTANYAQKFQGRVTITADESTSTPYMELSSLRSEDTAVYYCARGDTAMAPFDYWGQGTLVTVSS VL: SYVLTQPPSVSVAPGKTARITCGGNSIGSKSVHWYQQKPGQAPVLVIYYDSDRPSGVPERISGSNSGNTATLTISRVEAGDEADYYCQVWDSSSDSWVFGGGTKLTVL"
  OBS_VALUE: 2.6
- BINDER: "human anti-fHbp mAb 4F9 (antibody, V domains shown, IgG1; source: Expi293, transient transfection, purified (protein G Sepharose)) VH: QVQLVQSGGGLVKPGGSLRLSCAASGFPFSSYYMSWIRQAPGKGLEWVSDINNSGNVKEYADFVKGRLTISRDNVKNSMYLHMNSLRVEDTAVYYCARNRGRFDVWGQGTLVTVSA VL: EIVMTQSPGTLSLSPGETATLSCRASQMISSPFLAWYQQRRGQAPRLLIYGASTRATDTPDRFRGSGSGTDFILTISRLEPEDFAVYYCQHYDDSPFTFGQGTKLEIK"
  OBS_VALUE: 0.077

Now, please, on to the next binder.
[ask] Which Kd is reported for this binder? human anti-fHbp mAb 2C8 (antibody, V domains shown, IgG1; source: Expi293, transient transfection, purified (protein G Sepharose)) VH: QVQLVQSGAEVKKPGSSVKVSCKASGGTVINYPISWVRQVPGQGLEWMGRLVPLFGTPNYGQKFQGRITITADKSTSAAYMELIGLKSEDTAVYYCARGDTAMAPFDYWGHGTLVTVSS VL: QLVLTQPPSVSVAPGKTATITCGGNNVGGKTVHWYQQKPGQAPVLVMSYDSDRPSGIPERFSGSNSGNTATLTISRVEAEDEADYYCQVWHGNDDHWVFGGGTKLTVL
[reply] 0.34
